Sourced from the supplement of paper PMC8617591

Tested on: Mycobacterium tuberculosis Erdman (autoluminescent)
Test: total FIC50 (Loewe) at 50% inhibition, three-drug combination (log2); higher = more antagonistic
Details: in vitro model: acidic pH 5.7; time point: terminal (~4-5 doublings, model-specific)
METRIC NAME: total FIC50

Here is how some compounds turned out for total FIC50.
COc1nc2ccc(Br)cc2cc1[C@@H](c1ccccc1)[C@@](O)(CCN(C)C)c1cccc2ccccc12 [bedaquiline] + CC[C@@H](CO)NCCN[C@@H](CC)CO [ethambutol] + NC(=O)c1cnccn1 [pyrazinamide]; 0.412
COc1nc2ccc(Br)cc2cc1[C@@H](c1ccccc1)[C@@](O)(CCN(C)C)c1cccc2ccccc12 [bedaquiline] + CC(C)/N=c1\cc2n(-c3ccc(Cl)cc3)c3ccccc3nc-2cc1Nc1ccc(Cl)cc1 [clofazimine] + CC(=O)NC[C@H]1CN(c2ccc(N3CCOCC3)c(F)c2)C(=O)O1 [linezolid]; 0.786

Let us examine a further case.
Could you please provide reported total FIC50 for NNC(=O)c1ccncc1 [isoniazid] + NC(=O)c1cnccn1 [pyrazinamide] + CO[C@H]1/C=C/O[C@@]2(C)Oc3c(C)c(O)c4c(O)c(c(/C=N/N5CCN(C6CCCC6)CC5)c(O)c4c3C2=O)NC(=O)/C(C)=C\C=C\[C@H](C)[C@H](O)[C@@H](C)[C@@H](O)[C@@H](C)[C@H](OC(C)=O)[C@@H]1C [rifapentine] ? Thanks! -2.67
